Ref: paper PMC6222780

Test system: EA.hy926 cell line (the human umbilical vein, somatic cell hybrid)
Assay: XTT assay, cell proliferation study
Assay type: cell-based
Conditions: EA.hy926, XTT, 24 h incubation, 0.01–1250 µmol/L
Procedure: Four independent experiments (n = 4 for each used concentration) were performed. […] This indicates good or very good (in the case of 1, 3, 5, 8, 11) selectivity of action. […] The XTT assay was used to evaluate cell metabolic activity. […] The number of viable cells is correlated with the colour intensity determined by photometric measurements. […]
Items are presented alongside their recorded IC50.
Include the unit after the number when you answer.

O=c1c(C=NNc2cc(F)ccc2F)coc2ccccc12; 59.1 µM

# get_value(readout='IC50', item= O=c1c(C=NNc2c(F)c(F)c(F)c(F)c2F)coc2ccccc12 ) 253 µM

IC50 lookup needed for O=c1c(C=NNc2c(F)cc(F)cc2F)coc2ccccc12 , thanks. 18.1 µM

IC50 for O=c1c(C=NNc2c(F)c(F)cc(F)c2F)coc2ccccc12 ? 578 µM

---

test system: EA.hy926 cell line (the human umbilical vein, somatic cell hybrid); assay: XTT assay, cell proliferation study; assay type: cell-based; conditions: EA.hy926, XTT, viability over 0.01–1250 µmol/L, control = 100%
Measurement type: The Range of Influence [%, Control = 100%]

Look over these answered cases.
O=c1c(C=NNc2cc(F)ccc2F)coc2ccccc12; 14.79–106.26%
O=c1c(C=NNc2ccc(C(F)(F)F)cc2)coc2ccccc12; 37.40–101.33%
O=C(N/N=C/c1coc2ccccc2c1=O)c1ccc(F)cc1; 11.81–60.64%
O=c1c(C=NNc2c(F)c(F)cc(F)c2F)coc2ccccc12; 24.47–97.86%
O=c1c(C=NNc2c(F)c(F)c(F)c(F)c2F)coc2ccccc12; 13.15–69.88%

Which measured The Range of Influence [%, Control = 100%] value corresponds to N.N.[Cl][Pt][Cl] [Cisplatin, reference compound] ? 8.71–75.14%

Dear colleague, I am looking for the recorded The Range of Influence [%, Control = 100%] of the following compound: O=c1c(C=NNc2c(F)cc(F)cc2F)coc2ccccc12 23.31–63.94%

Param item = Cc1ccc(F)cc1NN=Cc1coc2ccccc2c1=O ; retrieve measured The Range of Influence [%, Control = 100%]. 42.43–101.05%

What measured The Range of Influence [%, Control = 100%] goes with O=c1c(C=NNc2cc(C(F)(F)F)cc(C(F)(F)F)c2)coc2ccccc12 ? 28.46–102.18%

Need The Range of Influence [%, Control = 100%], item O=c1c(C=NNc2ccccc2C(F)(F)F)coc2ccccc12 31.21–94.69%

---

Test system: EA.hy926 cell line (the human umbilical vein, somatic cell hybrid)
Assay: XTT assay, cell proliferation study
Type: cell-based
Conditions: EA.hy926, XTT, 24 h incubation, 0.01–1250 µmol/L
Protocol: Four independent experiments (n = 4 for each used concentration) were performed. […] This indicates good or very good (in the case of 1, 3, 5, 8, 11) selectivity of action. […] The XTT assay was used to evaluate cell metabolic activity. […] The number of viable cells is correlated with the colour intensity determined by photometric measurements. […]
Measurement type: IC50
A complete answer gives the number followed by the unit.

Use these answered entries as a reference point.
O=c1c(C=NNc2ccc(C(F)(F)F)cc2)coc2ccccc12; 975 µM
Cc1ccc(F)cc1NN=Cc1coc2ccccc2c1=O; 953 µM
O=c1c(C=NNc2cc(C(F)(F)F)cc(C(F)(F)F)c2)coc2ccccc12; 534 µM

Please look up its IC50: N.N.[Cl][Pt][Cl] [Cisplatin, reference compound] 67.4 µM

Consider the compound O=c1c(C=NNc2ccccc2C(F)(F)F)coc2ccccc12 and give its measured IC50. 645 µM
